The values you see were collected from ChEMBL document CHEMBL4732192.

- protocol.description: Protein binding in rat brain assessed as unbound fraction
- Format: ADME, tissue-based
parameter: fraction unbound
Hey, just send me the number, nothing else.

Solved entries:
O=C1CCSC[C@@H](C(=O)Nc2cc(Br)cc(Br)c2)N1	0.006
O=C1CCSC[C@@H](C(=O)Nc2cc(Cl)cc(Br)c2)N1	0.028

Return reported fraction unbound. Input compound: O=C1CCSC[C@@H](C(=O)Nc2cccc(Cl)c2)N1
0.01

---

// %max lookup, one value per entry
- experimental.system: Metabotropic glutamate receptor 4 (Rattus norvegicus) (UniProt P31423)
- Sequence (P31423 whole entry): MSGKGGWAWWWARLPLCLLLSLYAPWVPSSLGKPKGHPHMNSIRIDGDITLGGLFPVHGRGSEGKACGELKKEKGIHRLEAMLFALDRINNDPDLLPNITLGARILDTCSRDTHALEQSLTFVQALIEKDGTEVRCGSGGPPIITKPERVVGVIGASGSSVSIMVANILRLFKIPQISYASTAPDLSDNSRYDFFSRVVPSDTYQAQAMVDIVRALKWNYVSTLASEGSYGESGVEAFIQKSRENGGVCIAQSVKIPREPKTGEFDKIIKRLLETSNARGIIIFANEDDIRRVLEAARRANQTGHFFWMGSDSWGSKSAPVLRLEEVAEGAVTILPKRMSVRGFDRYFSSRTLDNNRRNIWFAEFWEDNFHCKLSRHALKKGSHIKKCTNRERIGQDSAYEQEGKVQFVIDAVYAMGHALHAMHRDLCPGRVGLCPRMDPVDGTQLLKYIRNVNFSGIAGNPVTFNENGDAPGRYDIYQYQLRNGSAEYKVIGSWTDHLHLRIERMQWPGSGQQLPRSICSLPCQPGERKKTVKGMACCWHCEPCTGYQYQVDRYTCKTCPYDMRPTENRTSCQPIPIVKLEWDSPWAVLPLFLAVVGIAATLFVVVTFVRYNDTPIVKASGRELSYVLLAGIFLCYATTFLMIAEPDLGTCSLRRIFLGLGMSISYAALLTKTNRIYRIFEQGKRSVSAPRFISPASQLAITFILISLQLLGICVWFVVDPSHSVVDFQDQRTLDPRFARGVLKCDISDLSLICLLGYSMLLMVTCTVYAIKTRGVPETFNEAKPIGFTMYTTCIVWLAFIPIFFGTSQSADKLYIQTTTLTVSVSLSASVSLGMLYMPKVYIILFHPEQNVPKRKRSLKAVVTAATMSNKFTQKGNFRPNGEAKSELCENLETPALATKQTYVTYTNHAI
- protocol.description: Positive allosteric modulation of rat mGlu4 receptor expressed in HEK293 cells co- expressing GIRK channel by thallium mobilization assay relative to control
- Format: cell-based
- run.conditions: filed as positive allosteric modulator
Give just the number in %; leave the unit off.

O=C1CCSC[C@@H](C(=O)Nc2cccc(Cl)c2)N1	120
O=C1CCSC[C@@H](C(=O)Nc2cc(F)cc(F)c2)N1	102
O=C1CCSC[C@@H](C(=O)Nc2cc(C(F)(F)F)cc(C(F)(F)F)c2)N1	102

Return reported %max. Input compound: O=C1CCSC[C@@H](C(=O)Nc2cc(Cl)cc(Br)c2)N1
108

Return reported %max. Input compound: O=C1CCSC[C@H](C(=O)Nc2cc(Br)cc(Br)c2)N1
104

Return reported %max. Input compound: O=C1CCSC[C@@H](C(=O)Nc2cc(F)cc(I)c2)N1
102

Return reported %max. Input compound: O=C1CCSC[C@@H](C(=O)Nc2cccc(Br)c2)N1
98

---

- experimental.system: Metabotropic glutamate receptor 7 (Homo sapiens, UniProt Q14831)
- Sequence (Q14831 whole entry): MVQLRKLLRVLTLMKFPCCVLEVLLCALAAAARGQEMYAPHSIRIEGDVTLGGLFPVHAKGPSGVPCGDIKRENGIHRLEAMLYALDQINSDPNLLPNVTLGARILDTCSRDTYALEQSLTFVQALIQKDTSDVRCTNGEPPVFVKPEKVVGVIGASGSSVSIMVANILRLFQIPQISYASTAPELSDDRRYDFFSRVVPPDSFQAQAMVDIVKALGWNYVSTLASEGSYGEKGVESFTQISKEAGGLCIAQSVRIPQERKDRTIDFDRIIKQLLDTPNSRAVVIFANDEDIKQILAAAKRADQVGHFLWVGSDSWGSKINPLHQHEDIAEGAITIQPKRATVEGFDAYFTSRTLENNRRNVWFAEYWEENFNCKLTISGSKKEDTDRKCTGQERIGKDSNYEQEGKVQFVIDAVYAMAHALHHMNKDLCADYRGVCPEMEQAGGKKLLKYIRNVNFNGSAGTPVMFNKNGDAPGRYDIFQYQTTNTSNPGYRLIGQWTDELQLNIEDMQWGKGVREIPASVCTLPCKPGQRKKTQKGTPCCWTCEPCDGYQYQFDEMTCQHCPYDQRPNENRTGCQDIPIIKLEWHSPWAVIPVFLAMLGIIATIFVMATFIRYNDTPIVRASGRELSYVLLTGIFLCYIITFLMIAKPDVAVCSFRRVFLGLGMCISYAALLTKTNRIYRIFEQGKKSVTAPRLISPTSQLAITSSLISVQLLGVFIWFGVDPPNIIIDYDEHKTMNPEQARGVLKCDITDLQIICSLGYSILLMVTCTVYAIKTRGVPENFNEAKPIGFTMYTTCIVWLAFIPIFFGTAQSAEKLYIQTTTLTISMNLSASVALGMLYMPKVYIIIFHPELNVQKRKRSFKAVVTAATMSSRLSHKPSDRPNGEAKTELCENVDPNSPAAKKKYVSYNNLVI
pIC50: −log10 of the molar value.
parameter: pIC50

Using Metabotropic glutamate receptor 7 (Homo sapiens, UniProt Q14831) as the test system, report measured pIC50 of O=C1CCSC[C@@H](C(=O)Nc2cc(Cl)cc(Br)c2)N1 .
< 5.00

---

// %max lookup, one value per entry
- experimental.system: Metabotropic glutamate receptor 4 (Rattus norvegicus) (UniProt P31423)
- protocol.description: Positive allosteric modulation of rat mGlu4 receptor expressed in HEK293 cells co- expressing GIRK channel by thallium mobilization assay relative to control
- Format: cell-based
- run.conditions: filed as positive allosteric modulator
Give just the number in %; leave the unit off.

Using Metabotropic glutamate receptor 4 (Rattus norvegicus) (UniProt P31423) as the test system, report measured %max of Cc1cc(Cl)cc(NC(=O)[C@@H]2CSCCC(=O)N2)c1 .
87

Using Metabotropic glutamate receptor 4 (Rattus norvegicus) (UniProt P31423) as the test system, report measured %max of O=C1CCSC[C@@H](C(=O)Nc2cc(Br)cc(I)c2)N1 .
101

Using Metabotropic glutamate receptor 4 (Rattus norvegicus) (UniProt P31423) as the test system, report measured %max of O=C1CCSC[C@@H](C(=O)Nc2cc(F)cc(Cl)c2)N1 .
112

Using Metabotropic glutamate receptor 4 (Rattus norvegicus) (UniProt P31423) as the test system, report measured %max of O=C1CCSC[C@@H](C(=O)Nc2cc(Cl)cc(Cl)c2)N1 .
88
